// reported inhibition at 1 µM for each item listed
# target of assay: ALCAT1 (Homo sapiens (Human))
# Sequence (Q6UWP7 whole entry): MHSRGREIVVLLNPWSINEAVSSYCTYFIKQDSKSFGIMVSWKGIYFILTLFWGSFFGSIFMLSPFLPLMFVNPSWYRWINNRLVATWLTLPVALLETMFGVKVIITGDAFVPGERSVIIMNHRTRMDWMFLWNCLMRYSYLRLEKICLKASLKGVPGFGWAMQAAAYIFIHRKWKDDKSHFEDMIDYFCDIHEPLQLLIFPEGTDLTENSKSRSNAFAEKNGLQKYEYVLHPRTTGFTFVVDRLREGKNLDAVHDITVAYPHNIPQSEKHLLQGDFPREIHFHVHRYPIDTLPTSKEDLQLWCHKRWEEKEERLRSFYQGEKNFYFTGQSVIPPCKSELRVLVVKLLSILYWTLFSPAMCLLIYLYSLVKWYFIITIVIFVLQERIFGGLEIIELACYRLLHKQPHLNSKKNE
# assay: In vitro acyltransferase assay for ALCAT1 inhibitors
# Format: biochemical
# test conditions: 1 μM compound; in vitro enzymatic assay
Answer in %, number only, no unit symbol.

A selection of reference data follows.
Request: For the compound COc1c(Br)cccc1C(=O)Nc1cccc(-c2nnc(-c3ccco3)o2)c1 , what inhibition at 1 µM is on record?
Result: 89

Request: For the compound COc1ccccc1C(=O)Nc1cc(-c2nnc(-c3ccco3)o2)ccc1F , what inhibition at 1 µM is on record?
Result: 100

Request: For the compound O=C(Nc1cccc(-c2nnc(-c3ccco3)o2)c1)c1cccc(Cl)c1Cl , what inhibition at 1 µM is on record?
Result: 72

Request: For the compound O=C(Nc1cccc(-c2nnc(-c3ccco3)o2)c1)c1ccc([N+](=O)[O-])cc1 , what inhibition at 1 µM is on record?
Result: 10

Request: For the compound Cc1ccc(OCC(F)(F)F)c(C(=O)Nc2cccc(-c3nnc(-c4ccco4)o3)c2)c1 , what inhibition at 1 µM is on record?
Result: 91

---
Request: For the compound O=C(Nc1ccccc1F)c1cccc(-c2nnc(-c3ccco3)o2)c1 , what inhibition at 1 µM is on record?
Result: 26

Request: For the compound O=C(Nc1cccc(-c2nnc(-c3ccco3)o2)c1)c1cccc(C(F)(F)F)c1 , what inhibition at 1 µM is on record?
Result: 46

Request: For the compound O=C(Nc1cc(-c2nnc(-c3ccco3)o2)ccc1F)c1cc(F)ccc1OCCF , what inhibition at 1 µM is on record?
Result: 98

----------
# target of assay: UniProt Q6UWP7
# assay: In vitro acyltransferase assay for ALCAT1 inhibitors
# Type: biochemical
# test conditions: ALCAT1 enzyme activity; triplicates, GraphPad; read-out: IC50
metric name: pIC50
For clarity, pIC50 is expressed as the negative log10 of concentration in mol/L.

A selection of reference data follows.
Request: For the molecule O=C(Nc1cccc(-c2nnc(-c3ccco3)o2)c1)c1cc(F)ccc1F [Compound 195] , what pIC50 is on record?
Result: 6.44

Request: For the molecule CCOc1ccc(CC)cc1C(=O)Nc1cccc(-c2nnc(-c3ccco3)o2)c1 [Compound 219] , what pIC50 is on record?
Result: 7.47

Request: For the molecule O=C(Nc1cccc(-c2nnc(-c3ccco3)o2)c1Cl)c1ccccc1F [Compound 297] , what pIC50 is on record?
Result: 6.54

Request: For the molecule Cc1cccc(C(=O)Nc2cccc(-c3nnc(-c4ccco4)o3)c2)c1 [Compound 57] , what pIC50 is on record?
Result: 5.55

---
Request: For the molecule Cc1ccc(OCC(F)(F)F)c(C(=O)Nc2cccc(-c3nnc(-c4ccco4)o3)c2)c1 [Compound 224] , what pIC50 is on record?
Result: 6.72

Request: For the molecule O=C(Nc1cc(-c2nnc(-c3ccco3)o2)ccc1F)c1ccccc1OC(F)(F)F [Compound 301] , what pIC50 is on record?
Result: 7.00

Request: For the molecule COc1ccc(Cl)cc1NC(=O)c1cccc(-c2nnc(-c3ccco3)o2)c1 [Compound 230] , what pIC50 is on record?
Result: 6.39

Request: For the molecule COc1ccc(OC(F)(F)F)cc1C(=O)Nc1cc(-c2nnc(-c3ccco3)o2)ccc1F [Compound 405] , what pIC50 is on record?
Result: 7.72
